Ref: patent US20250368742A1

System tested: T1, MICA004-ECD-HISAvi (human)
T1 construct: also called MICA004 polypeptide
T1 chain: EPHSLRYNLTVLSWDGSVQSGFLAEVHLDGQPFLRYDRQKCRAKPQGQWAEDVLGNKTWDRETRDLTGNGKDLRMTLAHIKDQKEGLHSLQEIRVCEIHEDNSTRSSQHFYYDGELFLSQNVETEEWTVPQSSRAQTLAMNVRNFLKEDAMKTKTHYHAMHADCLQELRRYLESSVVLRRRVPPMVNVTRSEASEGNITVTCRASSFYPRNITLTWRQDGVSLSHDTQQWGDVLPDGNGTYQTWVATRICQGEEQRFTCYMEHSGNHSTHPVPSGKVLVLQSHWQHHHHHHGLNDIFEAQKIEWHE
Assay details: BLI (GatorPrime); antibody on anti-hIgG Fc probe, monomeric antigen in solution;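 also: binding kinetics of anti-MICA/B antibodies measured by biolayer interferometry, with dissociation followed for about 10 min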
Experimental readout: Kd (nM)
Number only, in nM; omit the unit.

Query: Which Kd value is on record for 13A9 (antibody, human IgG1, kappa, V domains shown) VH: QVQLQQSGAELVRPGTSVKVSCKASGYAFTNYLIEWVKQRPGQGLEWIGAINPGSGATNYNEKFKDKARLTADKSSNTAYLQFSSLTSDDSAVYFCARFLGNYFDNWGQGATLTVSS VL: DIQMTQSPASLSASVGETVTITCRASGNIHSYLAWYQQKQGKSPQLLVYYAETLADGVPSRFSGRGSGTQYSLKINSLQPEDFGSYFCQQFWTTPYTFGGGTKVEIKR ?
Response: 1.39
